melting point overview

INSERT INTO assay_data (compound, assayendpoint, measurement) VALUES
  ('Ic1cccc2c1CCC2NC1=NCCS1 (stereo not drawn)', 'melting point', '170 to 171 °C'),
  ('Cc1ccc2c(c1)C(NC1=NCCS1)CC2 (stereo not drawn)', 'melting point', '181 °C'),
  ('NN(C1=NCCS1)C1CCc2ccccc21 (stereo not drawn)', 'melting point', '103 to 105 °C'),
  ('Fc1ccc2c(c1)CCC2NC1=NCCS1 (stereo not drawn)', 'melting point', '136 °C');

Need melting point of O=Cc1cccc2c1CCC2NC1=NCCS1 (stereo not drawn) , thanks. 142 to 143 °C

Look at this compound and give its reported melting point. CC(=O)N(C(C)=O)N(C1=NCCS1)C1CCc2ccccc21 (stereo not drawn) 91 to 92 °C

---

This section presents compounds with their documented melting point values.

Solved cases below.
INSERT INTO results (compound, assayendpoint, measurement) VALUES
  ('ON(C1=NCCS1)C1CCc2c(Cl)cccc21 (stereo not drawn)', 'melting point', '115 to 117 °C'),
  ('c1ccc(Oc2cccc3c2CCC3NC2=NCCS2)cc1 (stereo not drawn)', 'melting point', '143 to 146 °C'),
  ('COC(=O)c1cccc2c1CCC2NC1=NCCS1 (stereo not drawn)', 'melting point', '131 °C');

Entry CC(C)(C)OC(=O)NN(C1=NCCS1)C1CCc2ccccc21 (stereo not drawn) has what melting point? 63 to 64 °C

Name the reported melting point value associated with the compound Oc1cccc2c1CCC2NC1=NCCS1 (stereo not drawn) 191 °C

Request the reported melting point associated with Fc1c(F)c(F)c2c(c1F)CCC2NC1=NCCS1 (stereo not drawn) 165 °C

Consider the compound shown here: COc1cc2c(cc1C)CCC2NC1=NCCS1 (stereo not drawn) What is its recorded melting point? 152 to 153 °C

Form field: reported melting point of CCc1cc(F)c2c(c1)C(NC1=NCCS1)CC2 (stereo not drawn) 148 to 149 °C

Entry O=[N+]([O-])c1cccc2c1CCC2NC1=NCCS1 (stereo not drawn) has what melting point? 144 to 145 °C

---

Catalogue of molecules with associated melting point

Known results for molecules:
INSERT INTO measurements (molecule, measurement) VALUES
  ('CC1(C)CC(NC2=NCCS2)c2ccccc21 (stereo not drawn)', '60 to 66 °C'),
  ('Fc1ccc2c(c1F)CCC2NC1=NCCS1 (stereo not drawn)', '161 °C');

Item under review: CCCC1(CCC)Cc2ccccc2C1NC1=NCCS1 (stereo not drawn) . Reported melting point? 101 to 103 °C
